tested on: HOP-92 NSCLC; test: NCI tumour cell line growth inhibition, 48 h
Where a SMILES comes first, the peptide text is derived from it. [ ]: non-standard residue; d: D form. The star is where a group is joined. X28 = COC1=CC(=O)N(C(=O)[C@@H](O*)C(C)C)[C@H]1Cc1ccccc1; NMeL = CN[C@@H](CC(C)C)C(=O)O; Cbz = O=C(OCc1ccccc1)*
Would you mind telling me the reported TGI of each entry?

Tell me the measured TGI of COC(=O)C(Cc1ccccc1)NC(=O)C(CCCN=C(N)N)NC(=O)OCc1ccccc1 (stereo unspecified) , please.
> 100 µM

Tell me the measured TGI of O=C(Nc1cc([N+](=O)[O-])cc([N+](=O)[O-])c1)OC1C2CCC1C1OC1C2 (stereo unspecified) , please.
> 50 µM

Tell me the measured TGI of `C/C(CC(=O)Nc1ccc(NC(=O)/C(C)=N/NS(=O)(=O)c2ccc(C)cc2)cc1)=N\NS(=O)(=O)c1ccc(C)cc1` , please.
> 100 µM

Tell me the measured TGI of CCC(c1nc2ccccc2c(=O)n1NC(=O)C(C)(C)C)C1(O)CCCCC1 (stereo unspecified) , please.
> 100 µM

Tell me the measured TGI of `C=CC[C@@]1(C#N)C[C@H](C[C@]2(C#N)C[C@H](CCl)OC(C)(C)O2)OC(C)(C)O1` , please.
> 100 µM

Tell me the measured TGI of CN(C(=O)C1CC1)C1C2CN3CCC(O2)C13 (stereo unspecified) , please.
> 100 µM

Tell me the measured TGI of `CC(=O)NNc1nc(C)c(C(/C=C/c2ccc(Cl)cc2)=N/NC(=S)NN)s1` , please.
> 100 µM

Tell me the measured TGI of COC1=CC(=O)N(C(=O)[C@@H](OC(=O)[C@@H]2CCCN2C(=O)[C@@H]2CCCN2C(=O)[C@H](CC(C)C)N(C)C(=O)[C@@H](NC(=O)[C@@H](NC(=O)OCc2ccccc2)C(C)C)C(C)C)C(C)C)[C@H]1Cc1ccccc1 (Cbz-VV[NMeL]PP-X28) , please.
> 100 µM

Tell me the measured TGI of `Cc1cc(O)c(/C=N/C(=O)NN)c(=O)o1` , please.
> 100 µM

Tell me the measured TGI of `c1cc(-c2cnn3nc(N4CCOCC4)ccc23)nc(NC2CC2)n1` , please.
> 25 µM

Tell me the measured TGI of `Cc1noc(C)c1N=Nc1ccc2nonc2c1N` , please.
> 100 µM

Tell me the measured TGI of `Oc1oc(-c2ccccc2)nc1/C=C1/C=NN=N1` , please.
> 100 µM

Tell me the measured TGI of `CSc1ccc(C(=O)/C=C/c2ccc(F)cc2)cc1` , please.
> 100 µM

Tell me the measured TGI of `CCOC(=O)CCc1c(C)c2c(O)cc(O)cc2oc1=O` , please.
> 100 µM

Tell me the measured TGI of CC(=O)C1C(=O)C(=O)N(c2ccc([N+](=O)[O-])cc2Cl)C1=O (stereo unspecified) , please.
> 100 µM

Tell me the measured TGI of `COc1ccc(-c2cc(-c3ccc(Nc4ccnc5cc(C(F)(F)F)ccc45)cc3)[nH]c(=O)c2C#N)cc1` , please.
> 100 µM

###

test system: OVCAR-4 ovarian; test: NCI tumour cell line growth inhibition, 48 h; in the data active = GI50 below about 0.43 µM; inactive = the rest
Valid outcomes are listed here; reply with one: active, inactive

Test call, this molecule: `CN(C)CCN1C(=O)c2cccc3c(-c4ccc5ncn(C6CCCCC6)c5c4)ccc(c23)C1=O`
inactive

Test call, this molecule: `CCNC(=O)CCCCC(=O)c1c(C)[nH]c(/C=C2\N=C(c3ccc[nH]3)C=C2OC)c1C`
inactive

Test call, this molecule: `OCCCCC#Cc1ccccc1C#Cc1cccs1`
inactive

Test call, this molecule: `c1cc(-c2cnn3nc(N4CCOCC4)ccc23)nc(NC2CC2)n1`
inactive

Test call, this molecule: `O=C(/C=C\c1ccc(OCCCCCC[P+](c2ccccc2)(c2ccccc2)c2ccccc2)cc1)c1ccc2c(c1)OCCO2`
active

###

tested on: SR leukemia; experiment: NCI tumour cell line growth inhibition, 48 h
Would you mind telling me the reported TGI of each entry?

Form field: TGI recorded for `COc1cc(C(=O)/C=C/c2c(-c3cccs3)nc3ccccn23)cc(OC)c1OC` with SR leukemia (enter value)
> 100 µM

Form field: TGI recorded for `c1ccc([P+](CCC[P+](c2ccccc2)(c2ccccc2)c2ccccc2)(c2ccccc2)c2ccccc2)cc1` with SR leukemia (enter value)
> 100 µM

Form field: TGI recorded for O=C(O)C1C2CCC(C2)C1c1ccccc1 (configuration not stated) with SR leukemia (enter value)
> 100 µM

Form field: TGI recorded for `CN(c1ccccc1Cl)S(=O)(=O)c1ccccc1` with SR leukemia (enter value)
> 100 µM

Form field: TGI recorded for `CCOC(=O)CC(=Nc1cc(C)on1)N(CC)CC` with SR leukemia (enter value)
> 100 µM

Form field: TGI recorded for `COc1cc2c(cc1-c1c(C)noc1C)ncc1[nH]c(=O)n([C@H](C)c3ccccn3)c12` with SR leukemia (enter value)
> 100 µM

Form field: TGI recorded for `O=C(O)[C@H]1NC[C@@H]2ON=C(Br)[C@@H]21` with SR leukemia (enter value)
> 100 µM

Form field: TGI recorded for `CSc1ccc(C(=O)/C=C/c2ccc(F)cc2)cc1` with SR leukemia (enter value)
51.5 µM

Form field: TGI recorded for `CCOc1ccc(C(c2c(O)c3ccccc3oc2=O)c2c(O)c3ccccc3oc2=O)cc1` with SR leukemia (enter value)
58.7 µM

Form field: TGI recorded for `CCOC(=O)c1ccc2c(=O)n3c(C(=O)OCC)ccc3c(=O)n12` with SR leukemia (enter value)
> 100 µM

Form field: TGI recorded for `CN(/C(=N\O)c1ccccc1)c1ccccc1` with SR leukemia (enter value)
75.4 µM

Form field: TGI recorded for `C[C@@]1(CBr)C[C@@](C)(/C=C/Cl)[C@@H](Cl)C[C@H]1Cl` with SR leukemia (enter value)
16.9 µM

###

test system: RXF 393 renal; assay: NCI tumour cell line growth inhibition, 48 h
quantity_kind: TGI (µM)
Unit µM implied. Number only.

Tell me the measured TGI of `C[C@@]1(CBr)C[C@@](C)(/C=C/Cl)[C@@H](Cl)C[C@H]1Cl` , please.
27.9

Tell me the measured TGI of `COc1ccc2c(c1)Cc1c-2[nH]c2cc3c(cc2c1=O)OCO3` , please.
19.5

Tell me the measured TGI of COc1cc(C2c3cc4c(cc3[C@@H](Nc3ccc(N5CCOCC5)cc3)C3COC(=O)[C@H]23)OCO4)cc(OC)c1O (stereo partly drawn) , please.
5.86

Tell me the measured TGI of CC(C(O)c1ccccc1)[N+](=O)[O-] (stereo not drawn) , please.
27.7

Tell me the measured TGI of `O=C1C(Cl)=C(Nc2ccc3c(c2NC2=C(Cl)C(=O)c4ccccc4C2=O)C(=O)c2ccccc2C3=O)C(=O)c2ccccc21` , please.
9.79

Tell me the measured TGI of CC[S+](C)c1ccc(-c2c3nc(c(-c4ccc([S+](C)CC)cc4)c4ccc([nH]4)c(-c4ccc([S+](C)CC)cc4)c4nc(c(-c5ccc([S+](C)CC)cc5)c5ccc2[nH]5)C=C4)C=C3)cc1 (stereo not drawn) , please.
63.3

Tell me the measured TGI of `CCOc1ccc(-n2c(=O)n3c(Nc4ccc(Cl)cc4)nc4c(c(=O)n(C)c(=O)n4C)n3c2=O)cc1` , please.
43.2

Tell me the measured TGI of `CCOC(=O)c1cn2ncnc(Oc3ccc(NC(=O)NCCN(CC)CC)c(Cl)c3)c2c1C` , please.
3.37

Tell me the measured TGI of `COC(=O)Nc1nc2ccc(NS(=O)(=O)c3ccc(F)cc3)cc2[nH]1` , please.
78.6

Tell me the measured TGI of CC1(C)CC(=O)C2=C(C1)N(c1ccccc1)C1(O)C=CC(=O)C3=C(O)c4ccccc4C(=O)C321 (stereo not drawn) , please.
39.6

Tell me the measured TGI of `O=C(Nc1ccc([N+](=O)[O-])cc1)c1cc2ccccc2cc1O` , please.
1.26

Tell me the measured TGI of `Clc1ccc2c(NCCN3CCN(c4ccnc(N5CCCC5)n4)CC3)ccnc2c1` , please.
3.93

Tell me the measured TGI of `CCOC(=O)c1[nH]n(-c2ccccc2)c(=O)c1C=NC(=S)C(N)=S` , please.
65.1

Tell me the measured TGI of `COc1ccc(-c2cc3nccn3c(Nc3ncccc3C(N)=O)n2)cc1OC` , please.
18.4

Tell me the measured TGI of COc1cc(C2c3cc4c(cc3OC(N3CCOCC3)C2C)OCO4)cc(OC)c1OC (stereo not drawn) , please.
1.22

Tell me the measured TGI of `CC(C)(C)[Si](Nc1ccccc1)(c1ccccc1)c1ccccc1` , please.
26.5

Tell me the measured TGI of C#CCOc1cccc(Nc2ncnc3c2ncn3C2CCN(C(=O)CCl)C2)c1 (stereo not drawn) , please.
36.6
